# method: protein stability index of a GFP-peptide fusion (GPS, HEK-293T) (PSI 1-6); higher = more stable;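 further: 24-mer peptide tiles fused after GFP, lentivirally expressed, FACS-sorted into six equal bins by GFP/DsRed ratio, decoded by Illumina sequencing, PSI is the read-weighted mean bin number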
# test.context: treatment: MLN4924 1 uM, 8 h; c terminus: a fixed tail appended
Returns one of 1 (yes) or 0 (no); 1 (yes) when protein stability index is >= 4.

input.sequence: AAEQAERSQSSIVPEEEQAANKGE [SMARCE1]
label.class: 1 (yes)
--
input.sequence: SEADASHCIQQILEAVLHCHQMGV [CAMK2B]
label.class: 0 (no)
--
input.sequence: ETRPAKRITITESNMKSRYTTEFH [WEE1]
label.class: 0 (no)
--
input.sequence: EGVSLTAVLTTHHHWDHARGNPEL [HAGHL]
label.class: 0 (no)
--
input.sequence: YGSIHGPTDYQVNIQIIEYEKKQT [BTBD1]
label.class: 0 (no)
--
input.sequence: GLSIPSHSSELTEQKLRACLEGSI [RPAIN]
label.class: 0 (no)
--
input.sequence: TERSPGPRLQELLGPSPQRDPQAV [ZNF263]
label.class: 1 (yes)

----------
# method: protein stability index of a GFP-peptide fusion (GPS, HEK-293T) (PSI 1-6); higher = more stable
# test.context: treatment: DMSO; c terminus: a fixed tail appended
Returns one of Y or N; Y when protein stability index is >= 3.

input.sequence: LSPDIMKDAYVQKLVKVCNGHDCW [TENT5D]
label.class: N
--
input.sequence: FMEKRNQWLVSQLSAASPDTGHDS [TRAF3IP2]
label.class: N
--
input.sequence: QSTDGARGKRGYSRGLHAWEISWP [SPSB2]
label.class: N
--
input.sequence: QRHPRLRPQSAQSSFPPSPGPSPD [AUP1]
label.class: Y
--
input.sequence: QSLRCDLIRYICGVVHPSNEVLSS [INTS3]
label.class: N
--
input.sequence: LNECVGTAYWALAGSIGGLFFAVG [SLC22A15]
label.class: Y
--
input.sequence: KEDASEFQILKYLFQIDVYDFMNS [MIA2]
label.class: N
--
input.sequence: LKLALDMEIATYRKLLESEECRMS [KRT71]
label.class: N
--
input.sequence: ILENTSKVPAPKDVLAHQVPNAKK [NOP53]
label.class: Y
--
input.sequence: SCPEGDASECPQATNAKDSGCSSP [PPEF2]
label.class: Y
--
input.sequence: KAFGVGVAYRSLGRFEQLGKTAAS [FSD1]
label.class: N
--
input.sequence: DIRLTLMEEVLLLGLKDKEGYTSF [GOLPH3L]
label.class: N
--
input.sequence: SLIGKGSFGQVVKAYDHQTQELVA [DYRK1B]
label.class: Y

----------
# method: protein stability index of a GFP-peptide fusion (GPS, HEK-293T) (PSI 1-6); higher = more stable
# test.context: treatment: MLN4924 1 uM, 8 h; c terminus: a fixed tail appended
Returns one of rule met or rule not met; rule met when protein stability index is >= 3.

input.sequence: AAGMRFPLPEAIDPDVGVNSLQSY [PCDHGA10]
label.class: rule met
//
input.sequence: VEGKCLQSGFEMLKDVKSTLEKCE [TRIM39]
label.class: rule met
//
input.sequence: FDAALVSFINFFTSVLATLVVFAV [SLC6A17]
label.class: rule met
//
input.sequence: VNLEEIPGEGLLISWAFTDRPDLS [C2CD2L]
label.class: rule not met
//
input.sequence: LRFFKEKDGKAFHPTYEEKLKLVA [ACBD3]
label.class: rule not met
//
input.sequence: SGLQGLPECTRCGHGIVGTIVKAR [PDLIM4]
label.class: rule not met

----------
Measured protein stability index by item
# method: protein stability index of a GFP-peptide fusion (GPS, HEK-293T) (PSI 1-6); higher = more stable
# test.context: treatment: DMSO; c terminus: native

input.sequence: RTKSRTWAGEKSKREMYSRLKKL [CDC25A]
protein stability index: 4.36
--
input.sequence: GKRPSQEEDTQSIGPKVQRQSTN [CRY1]
protein stability index: 5.35
--
input.sequence: SPALSQGHVTGSKTTKDATGPDT [PSD2]
protein stability index: 5.33
--
input.sequence: QPKPLLLPAAPKTQTISSIPPQT [ATF6]
protein stability index: 4.73
--
input.sequence: LLESPQLATLAEDVTAALAKQGL [MAP2]
protein stability index: 4.66
--
input.sequence: HNDLWESWFVPDPAGIFKLNHHS [GLT8D2]
protein stability index: 2.87
--
input.sequence: LRQFFKQLPSPPFLPAAGTADCR [CEBPD]
protein stability index: 1.89
--
input.sequence: RFVQDLVRALEQEKLQGVECGLR [DAPK3]
protein stability index: 2.92
--
input.sequence: EEEEEEEEVDLACTPTDVRDVDI [CCND1]
protein stability index: 4.5
--
input.sequence: DDPATLGPHLGLRGVPQSTAASS [DYRK1B]
protein stability index: 3.28
--
input.sequence: LNIYKTLKTHLIEKGILQPTLKV [CDS1]
protein stability index: 2.71

----------
# method: protein stability index of a GFP-peptide fusion (GPS, HEK-293T) (PSI 1-6); higher = more stable
# test.context: treatment: MLN4924 1 uM, 8 h; c terminus: a fixed tail appended
Classes are defined on protein stability index with ranges I (below 3), II (3 to below 4), III (4 or more)

input.sequence: EVIISWSEKASKKYVSKELAKEIR [EIF5]
label.class: I

input.sequence: LKKLAEENPDLQEAYIAKQKRLKS [GDAP1]
label.class: III

input.sequence: GAAAQGQTQTVAAQAQALAAQAAA [PI4K2A]
label.class: III

input.sequence: QSKILKVIRKNIVKKCLELFSELA [HSP90AB1]
label.class: II

input.sequence: YVDSPALTNIWMARTCAKQNINAP [C22orf31]
label.class: I

input.sequence: LSRYQNELAGVDTELLAERFYYQA [SMG5]
label.class: I

input.sequence: FCQMLAVVETINAAIGVTTSPVLP [HACD3]
label.class: I

input.sequence: LEIDSGVITLDPQTASRSLVLSED [TRIM15]
label.class: III

input.sequence: EDTPSDNDSGICMSPESYLGSPQH [ATF4]
label.class: III

input.sequence: FVGAGRMAGAIAQGLIRAGKVEAQ [PYCR3]
label.class: I

input.sequence: GEDCKLPPQPCATACKPVIRVPSV [KRT36]
label.class: II

----------
# method: protein stability index of a GFP-peptide fusion (GPS, HEK-293T) (PSI 1-6); higher = more stable
# test.context: treatment: MLN4924 1 uM, 8 h; c terminus: a fixed tail appended
quantity.kind: protein stability index

input.sequence: WRKRFRPREHHGRGGMLSASAETL [PPFIA4]
test.value: 3.26
--
input.sequence: NLFVPLNTNPKEVQEMRNKIREQN [ADD1]
test.value: 4.18
--
input.sequence: QVKASSPVPATPILQLEECCTHNN [TRIM9]
test.value: 4.92
--
input.sequence: LAPTFSNLLLQPTTNPHTSASHRP [SMG5]
test.value: 3.61
--
input.sequence: VQEMRNKIREQNLQDIKTAGPQSQ [ADD1]
test.value: 5.1
--
input.sequence: EGDPGSKQPRKKRGRYRQYNSEIL [LCOR]
test.value: 4.55
--
input.sequence: AGPNGTLFVADAYKGLFEVNPWKR [APMAP]
test.value: 2.72
--
input.sequence: SHYFKIIEDLRAQIFANTVDNARI [KRT18]
test.value: 2.07
--
input.sequence: LNSPPGPHSAKTEEHTTILRPSYT [CDC14A]
test.value: 4.65
--
input.sequence: MCEQCDVFYCDPCRLRCHPPRGPL [TRIM9]
test.value: 2.72
--
input.sequence: EYLLSFPAGKTPVPAGEEEGELGE [VPS39]
test.value: 5.31
--
input.sequence: EADPPASDLPTPQAIEPQAIVQQV [SNX8]
test.value: 5.2
--
input.sequence: QVTCLRTQVLEDSEDSFCRRHPGL [TRAF3IP2]
test.value: 4.08
--
input.sequence: NCLTGEGEDTRLSASEMKQLIDNI [CIB1]
test.value: 4.74
--
input.sequence: NFGLRLVVQRCSGQKWMIRNWIKH [GALNT9]
test.value: 2.06
--
input.sequence: DQDGEYCPEVKLKTTGLEEAAEAE [SRPK2]
test.value: 5.81
--
input.sequence: RPWADTCSSSGKDGNLCLHVPNPP [HESX1]
test.value: 3.81
--
input.sequence: MAQSRDGGNPFAEPSELDNPFQDP [SCAMP3]
test.value: 5.19
--
input.sequence: LTAQGQQFHCHKAVLASCSQYFRS [KLHL14]
test.value: 2.37
--
input.sequence: PFNQSTFNNVVEQNFKNRESYPED [DLC1]
test.value: 4.66
--
input.sequence: VSLGATGGPPAGPGGVYAGPEPPP [JUNB]
test.value: 4.46
--
input.sequence: EALGFSWHDTCFVCAICQINLEGK [PDLIM7]
test.value: 1.63
--
input.sequence: TTENENTKFEVRLLRDPADASEAH [CHGB]
test.value: 5.24
--
input.sequence: EGYILREDGKTCRRKDVCQAIDHG [MATN2]
test.value: 4.44
--
input.sequence: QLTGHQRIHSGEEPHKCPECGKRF [ZNF449]
test.value: 4.82
--
input.sequence: PVIAAPSMWTRPQIKDFKEKIQQD [ACBD3]
test.value: 4.41
--
input.sequence: KKLTGGANWQPKVAPATWSAGVPP [SNAP91]
test.value: 3.34
--
input.sequence: EFSSVGTEMIITKAGRRMFPACRV [TBX6]
test.value: 2.66
--
input.sequence: STSLLTSAGNRTHKARTRPKARKQ [ADAMTSL2]
test.value: 4.92
--
input.sequence: FSRENLSKDLYLISQMDSDQFIPI [LARP4]
test.value: 2.13
--
input.sequence: KPHRCHNCGKSFSRLTALTLHQRT [ZNF449]
test.value: 2.78
--
input.sequence: PQSPPSCRAPPPEARGIRAPPLPD [FCHO1]
test.value: 5.09
--
input.sequence: NGGVVQVGELLPCKICGRTFFPVA [ZC2HC1A]
test.value: 2.48
--
input.sequence: PLNPKPHKKKSPGEKPHRCPQCGK [ZNF449]
test.value: 4.49
--
input.sequence: QGRKIAEVCCTSIVYATEKKQTKV [KCTD13]
test.value: 3.61
--
input.sequence: ERLFGSAANVVSAKRNRLAPAHVD [ZBED1]
test.value: 3.66
--
input.sequence: GLKKLNLHEEEHVLLMAICIVSPD [VDR]
test.value: 2.83
--
input.sequence: TFDTGCLTLSQYILLDPILMFFIM [POMT2]
test.value: 2.33
--
input.sequence: APFGRISDARVVKDMATGKSKGYG [TIA1]
test.value: 4.35
--
input.sequence: TSDVYSSDAAFGGILERYWLSSRA [MYORG]
test.value: 2.47
--
input.sequence: SLEKLLASEPLPWDLRFRIIHETA [RIPK4]
test.value: 2.31
--
input.sequence: ISESGGLNWKMTLCLLVAWSIVGM [SLC6A17]
test.value: 2.83
--
input.sequence: AEDLRMLDASGEKMNGSHRDQGSS [IKZF1]
test.value: 5.34
--
input.sequence: AIIISTIVLDRALHIPMYFFLAIL [OR10K2]
test.value: 3.04
--
input.sequence: ELQLEQSRAANQEQRANDLEQIME [CEP70]
test.value: 5.16
--
input.sequence: LSLGLATVDIQNPDITSSRYRGLP [WAS]
test.value: 3.12
--
input.sequence: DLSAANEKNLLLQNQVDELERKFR [LRRC45]
test.value: 4.08
--
input.sequence: NCVLSSSPNPFPEISRGEYLYTYD [ZNF8]
test.value: 3.01
--
input.sequence: MTKTVQYQNELHKFLIWDTAGQER [RAB22A]
test.value: 3.14
--
input.sequence: FHIMKRKFTNKEWETIRSFKDEWT [AASDHPPT]
test.value: 2.09
--
input.sequence: FSTGIKMGQHISLAPIHKLEEALY [MNAT1]
test.value: 2.08
--
input.sequence: DAEGLAARDVQKIIGDYFSDQDPR [INTS4]
test.value: 4.86
--
input.sequence: CVHPRGGVIQSVSSWKHGSGTQYV [C18orf25]
test.value: 2.32

FYI, the data here is from the supplement of paper PMC10567573.
